Consider the following compounds; for each one, report its cell viability.
# Tested on: NOMO1
# Assay Procedure: cell viability relative to DMSO control; higher = less cytotoxic
# Experimental Context: HPLM + 10% dialyzed FBS; 48 h; 46.1 µM
Give the value in % but do not write % after it.

Recorded result, CC[C@H](/C=C/[C@@H](C)[C@H]1CC[C@H]2[C@@H]3CC=C4C[C@@H](O)CC[C@]4(C)[C@H]3CC[C@]12C)C(C)C , cell viability: 58.2

Note to self: cell viability recorded for C[N]1C=C(C=N1)C2=C3\C=N/NC(=O)C4=C3C(=CC(=C4)NC(=O)[C@H](N)C5CCCCC5)[NH]2 was 36.6

Input C[C@]12COC(=O)C[C@@H]1CC[C@@H]1[C@@H]2CC[C@@]2(C)[C@H]1CC[C@]2(C)O . Output cell viability: 80

response.value for CCc1ccc(CCOc2ccc(CC3SC(=O)NC3=O)cc2)nc1 (centres undefined) (field: cell viability) = 106

---

What cell viability was measured for each of the following?
# Test system: SEM cells
# Assay Procedure: cell viability relative to DMSO control; higher = less cytotoxic
# Experimental Context: RPMI 5 mM glucose + 10% dialyzed FBS; 48 h; 1.71 µM
Report the figure in % without appending any unit label.

Memo: N#CCNC(=O)c1ccc(-c2ccnc(Nc3ccc(N4CCOCC4)cc3)n2)cc1 , reported cell viability: 88.5

Short answer for S=C(NCc1ccc2c(c1)OCO2)N1CCN(c2ncnc3c2oc2ccccc23)CC1 : cell viability was 135

Looking up Cc1onc(-c2ccccc2Cl)c1C(=O)N[C@@H]1C(=O)N2[C@@H]1SC(C)(C)[C@@H]2C(=O)[O-] , I found its cell viability recorded as 113

GET /value?item= C[C@@H](Oc1cc(-c2cnn(C3CCNCC3)c2)cnc1N)c1c(Cl)ccc(F)c1Cl &field=cell viability returns 116

Value of cell viability reported for the compound C[C@](O)(CS(=O)(=O)c1ccc(F)cc1)C(=O)Nc1ccc(C#N)c(C(F)(F)F)c1 is 122

cell viability measured on CC[C@H](/C=C/[C@@H](C)[C@H]1CC[C@H]2[C@@H]3CC=C4C[C@@H](O)CC[C@]4(C)[C@H]3CC[C@]12C)C(C)C = 108

cell viability recorded for this compound, c1ccc(CCCN2CCN(CCOC(c3ccccc3)c3ccccc3)CC2)cc1 , is 96.5

Lookup result for CCN1\C=C(\C(O)=O)C(=O)C2=C1C=C(N3CCNCC3)C(=C2)F ; measured cell viability: 104

Record summary for COc1ccccc1OCC(O)COC(N)=O (stereo not drawn) : reported cell viability = 93.8

cell viability reading for CNCC(O)c1ccc(O)cc1 (stereo not drawn) : 99.4

Input CC(C)c1noc(N2CCC(COc3ccc(-c4ccc([S+](C)(=O)[O-])cc4)nc3)CC2)n1 . Output cell viability: 60.4

Reported cell viability for C[C@]12COC(=O)C[C@@H]1CC[C@@H]1[C@@H]2CC[C@@]2(C)[C@H]1CC[C@]2(C)O was 92

Lab book: cell viability of Cc1coc2c1C(=O)C(=O)c1c-2ccc2c(C)cccc12 noted as 102

Documented cell viability of OC[C@@H](O)[C@@H](O)[C@H](O)[C@@H](O)CO : 118

Form field cell viability, entry COc1cc(OC2CCN(C)CC2)ccc1Nc1ncc2c(n1)n(C1CCCC1)c(=O)n2C : 55.4

The recorded cell viability for entry CCC[S+]([O-])c1ccc2[nH]c(NC(=O)OC)nc2c1 (stereo not drawn) equals 105

For reference, reported cell viability for C[C@](Cc1c[nH]c2ccccc12)(NC(=O)OC1C2CC3CC(C2)CC1C3)C(=O)NC[C@H](NC(=O)CCC(=O)O)c1ccccc1 (stereo partly drawn) stands at 142

Per the records, this compound ( CC(C)c1ccc2c(c1)c(SC(C)(C)C)c(CC(C)(C)C(=O)[O-])n2Cc1ccc(Cl)cc1 ) has cell viability equal to 88.5
